Source: patent US12186286B2

MEASUREMENT DESCRIPTION: Pharmacokinetics and CNS penetration in mouse
Assay type: in vivo
PARTICULARS: in vivo, po, 10 mg/kg p.o.
PROPERTY LABEL: Tmax (min)
// note: answer is a bare numeric in min

For the compound shown here, NC(=O)C(c1ccccc1)(c1ccc(F)cc1)c1ccc(F)cc1 , give the reported Tmax.
19.8

* * *

MEASUREMENT DESCRIPTION: Pharmacokinetics and CNS penetration in mouse
Type: in vivo
PARTICULARS: brain, read-out: % unbound Brain
PROPERTY LABEL: fraction unbound
The answer should be written as a number, with no unit following it.

Query: fraction unbound; subject: NC(=O)C(c1ccccc1)(c1ccc(F)cc1)c1ccc(F)cc1 [Senicapoc, senicapoc]
0.008
